Target: human glucagon receptor (human, UniProt P47871 26-477)
Assay: cell-based or functional assay
Measurement label: EC50 of cAMP formation, HEK293 cells expressing human Glucagon-R (nM)

Please review the following examples before continuing.
Consider H-HSQGTFTSDYSKYLDRARADDFVEWLKST-NH2 [ZP2649] . Its measured EC50 of cAMP formation, HEK293 cells expressing human Glucagon-R is 0.3

The reported value for H-HSQGTFTSDYSKYLDRARAHDFVAWLKST-NH2 [ZP2648] in terms of EC50 of cAMP formation, HEK293 cells expressing human Glucagon-R is 0.2

The recorded EC50 of cAMP formation, HEK293 cells expressing human Glucagon-R for H-HSQGTFTSDYSKYLDRARADDFVAWLKEA-NH2 [ZP2635] is 0.2

[P] H-HSQGTFTSDYSKYLDRARAEDFVAWLKST-NH2 [ZP2637]
[Q] H-HSQGTFTSDYSKYLDRARADDFVAWLERA-NH2 [ZP2650]
Req: Which gives the smaller EC50 of cAMP formation, HEK293 cells expressing human Glucagon-R number: P or Q ? Please respond with the label that marks your chosen entry.
Resp: Q
